Target: T1, cynomolgus MCSP D3 (cynomolgus, UniProt Q6UVK1 1582-2224 (human entry), limits assumed)
T1 construct: also called Cyno MCSP; cynomolgus homologue
T1 chain: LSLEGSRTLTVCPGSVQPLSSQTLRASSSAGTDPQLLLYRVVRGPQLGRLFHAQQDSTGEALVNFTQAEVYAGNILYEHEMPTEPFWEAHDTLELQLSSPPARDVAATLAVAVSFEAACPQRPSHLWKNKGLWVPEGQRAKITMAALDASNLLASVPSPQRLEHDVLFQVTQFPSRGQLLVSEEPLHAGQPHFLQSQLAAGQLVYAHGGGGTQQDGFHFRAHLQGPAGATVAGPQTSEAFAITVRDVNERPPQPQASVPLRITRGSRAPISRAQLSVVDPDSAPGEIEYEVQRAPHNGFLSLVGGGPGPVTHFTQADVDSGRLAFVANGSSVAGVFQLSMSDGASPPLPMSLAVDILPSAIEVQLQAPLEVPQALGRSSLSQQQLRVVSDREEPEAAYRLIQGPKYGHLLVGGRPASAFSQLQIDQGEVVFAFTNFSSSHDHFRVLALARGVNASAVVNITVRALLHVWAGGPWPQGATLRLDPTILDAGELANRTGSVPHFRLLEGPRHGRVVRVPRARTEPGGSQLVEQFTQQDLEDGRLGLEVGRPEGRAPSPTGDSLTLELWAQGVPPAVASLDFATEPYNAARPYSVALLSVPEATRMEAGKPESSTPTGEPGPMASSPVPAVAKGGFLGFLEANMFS
Assay: SPR ProteOn XPR36, 25 C; IgG captured via anti-human F(ab')2, MCSP D3 as analyte
Overview of recorded Kd for various binders
Please reply with the bare figure in nM and do not write the unit itself.

binder: M4-3/ML2(C5/G3) IgG (antibody, V domains shown, Human IgG1) VH: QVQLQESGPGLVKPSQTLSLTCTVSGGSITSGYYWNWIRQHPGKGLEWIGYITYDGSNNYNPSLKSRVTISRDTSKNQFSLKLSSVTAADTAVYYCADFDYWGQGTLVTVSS VL: DIQMTQSPSSLSASVGDRVTITCRASRGIREYLNWYQQKPGKAPKLLIYYTGSLHSGVPSRFSGSGSGTDFTLTISSLQPEDFATYYCQQYSALPWTFGQGTKVEIK
unit.symbol: nM
Kd: 1

binder: M4-3(A7)/ML2 IgG (antibody, V domains shown, Human IgG1) VH: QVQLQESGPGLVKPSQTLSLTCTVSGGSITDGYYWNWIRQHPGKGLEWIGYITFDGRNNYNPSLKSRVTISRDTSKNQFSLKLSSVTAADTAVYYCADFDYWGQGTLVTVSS VL: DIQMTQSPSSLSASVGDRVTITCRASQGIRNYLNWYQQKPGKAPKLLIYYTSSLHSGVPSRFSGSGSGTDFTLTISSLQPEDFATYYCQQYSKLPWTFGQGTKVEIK
unit.symbol: nM
Kd: 1

binder: M4-3(A7)/ML2(E10) IgG (antibody, V domains shown, Human IgG1) VH: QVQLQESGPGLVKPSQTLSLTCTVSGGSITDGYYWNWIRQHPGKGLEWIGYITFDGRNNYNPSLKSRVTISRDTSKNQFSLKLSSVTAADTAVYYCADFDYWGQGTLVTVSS VL: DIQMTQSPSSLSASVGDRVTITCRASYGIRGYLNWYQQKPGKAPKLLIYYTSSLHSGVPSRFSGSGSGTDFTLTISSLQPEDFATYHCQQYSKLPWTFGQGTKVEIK
unit.symbol: nM
Kd: 0.7

Can you share its Kd? I mean this binder: M4-3/ML2(C5) IgG (antibody, V domains shown, Human IgG1) VH: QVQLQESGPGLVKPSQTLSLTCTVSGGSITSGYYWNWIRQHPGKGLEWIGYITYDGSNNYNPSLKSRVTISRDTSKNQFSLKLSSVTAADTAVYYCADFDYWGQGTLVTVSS VL: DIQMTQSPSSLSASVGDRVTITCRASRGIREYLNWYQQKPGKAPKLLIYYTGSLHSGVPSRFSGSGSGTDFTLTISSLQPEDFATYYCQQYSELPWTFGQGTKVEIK 1
